# Method Summary: Mouse brain uptake assay (MBUA), 3 mg/kg IV, 0-24 h, 4 time points
# Format: in vivo, male CD1 mice
# Measurement Conditions: male, CD1; brain, mouse, 3 mg/kg IV, 0-24 h; read-out: AUClast (b)
Measurement Type: AUC(0-t) (ng·h/mL)
Entry rule: numbers only, all in ng·h/mL.

Here's what some known entries look like.
• CO[C@H]1C[C@H](c2nc3cccc(N4CCN(C)CC4)c3[nH]2)N(C)[C@H](c2ncccc2C)C1 [I-103] = 3280
• Cc1cccnc1[C@@H]1CCC[C@H](c2nc3cccc(N4CCN(C5CC5)CC4)c3[nH]2)N1C [I-76] = 59800
• CN1CCC(n2ccnc2[C@H]2CCC[C@@H](c3ncccc3Cl)N2C)CC1 [I-170] = 6410
• Cc1c(Cl)ccnc1[C@@H]1CCC[C@H](c2nc3cccc(N4CCN(C)CC4)c3[nH]2)N1C [I-82] = 1150
• Cc1cccnc1[C@@H]1CCC[C@H](c2nc3cccc(N4CCN(C(C)C)CC4)c3[nH]2)N1 [I-128] = 3940

Q: Fill in the blank: the reported AUC(0-t) of Cc1cccnc1[C@@H]1CCC[C@H](c2nc3cccc(N4C5CCC4CN(C)C5)c3[nH]2)N1 [I-120] is ____.
A: 5110

Q: And for Cc1cccnc1[C@@H]1CCC[C@H](c2nc3cccc(N4CCN(C)C5(CC5)C4)c3[nH]2)N1C [I-108] ?
A: 22800

Q: And for COc1ccnc([C@@H]2CCC[C@H](c3nc4cccc(N5CCN(C)CC5)c4[nH]3)N2C)c1C [I-81] ?
A: 11700

====

# Measured Target: UniProt P61073
# Sequence (P61073 whole entry): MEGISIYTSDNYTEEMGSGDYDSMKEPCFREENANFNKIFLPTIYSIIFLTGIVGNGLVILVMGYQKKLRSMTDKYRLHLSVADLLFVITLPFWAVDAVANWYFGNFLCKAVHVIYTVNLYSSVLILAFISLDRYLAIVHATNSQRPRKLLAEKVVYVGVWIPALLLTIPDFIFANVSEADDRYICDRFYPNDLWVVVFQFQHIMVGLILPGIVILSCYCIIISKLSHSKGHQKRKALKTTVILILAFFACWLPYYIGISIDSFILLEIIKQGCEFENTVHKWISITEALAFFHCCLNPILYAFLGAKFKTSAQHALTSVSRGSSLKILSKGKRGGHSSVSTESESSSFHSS
# Method Summary: Intracellular CXCL-12-induced calcium mobilization assay (FLIPR)
# Measurement Conditions: U87.CXCR4 cells; CXCL-12 25-50 ng/mL; compound added 15 min before; read-out: IC50 CXCL-12 Ca^2+ flux U87.CXCR4+
Measurement Type: IC50

* Cc1cccnc1[C@@H]1CCC[C@H](c2nc3cccc(N4CCN5CCCC5C4)c3[nH]2)N1C (stereo partly drawn) | 0.01 to 100 nM

Q: Fill in the blank: the reported IC50 of `Cc1cccnc1[C@@H]1CCC[C@H](c2nc3cccc(C4CCN(C)CC4)c3[nH]2)N1` is ____.
A: 0.01 to 100 nM

Q: And for `CN1CCC(n2c([C@H]3CCC[C@@H](c4ncccc4Cl)N3)nc3ccccc32)CC1` ?
A: 0.01 to 100 nM

Q: And for `Cc1cccnc1[C@@H]1CCC[C@H](c2nc3cccc(N4CC5CCC(C4)N5)c3[nH]2)N1C` ?
A: 0.01 to 100 nM

Q: And for `CN1CCN(c2cccc3nc([C@H]4CCC[C@@H](c5ccccn5)N4C)[nH]c23)CC1` ?
A: 100 to 1000 nM

Q: And for `Cc1cccnc1[C@@H]1CCC[C@H](c2nc3ccccc3n2CCCO)N1` ?
A: ≥ 1000 nM

Q: And for `Cc1cccnc1[C@@H]1CCC[C@H](c2nc3ccccc3n2CCCCN2CCOCC2)N1C` ?
A: ≥ 1000 nM

Q: And for `Cc1cccnc1[C@@H]1CCC[C@H](c2nc3ccccc3n2CCCCN(C)C)N1C` ?
A: 100 to 1000 nM

Q: And for `Cc1cccnc1[C@@H]1CCC[C@H](c2nc3cccc(N4C[C@@H](C)N(C)[C@@H](C)C4)c3[nH]2)N1C` ?
A: 0.01 to 100 nM

Q: And for `Cc1ccnc([C@@H]2CCC[C@H](c3nc4cccc(N5CCN(C)CC5)c4[nH]3)N2C)c1C` ?
A: 100 to 1000 nM

Q: And for `COCCCn1c([C@H]2CCC[C@@H](c3ncccc3C)N2)nc2ccccc21` ?
A: ≥ 1000 nM

Q: And for `Cc1cccnc1[C@@H]1CCC[C@H](c2nc3ccccc3n2CCCN2CCN(C)CC2)N1C` ?
A: 0.01 to 100 nM

Q: And for CN1CCN(c2cccc3nc([C@H]4CCC[C@@H](c5ncccc5C5CC5)N4C)[nH]c23)CC1 (stereo in doubt) ?
A: 0.01 to 100 nM

Q: And for `Cc1cccnc1[C@@H]1CCC[C@H](c2nc3c(N4CCN(C)CC4)cccc3n2C)N1C` ?
A: ≥ 1000 nM

Q: And for `Cc1cccnc1[C@@H]1CCC[C@H](c2nc3ccccc3n2C2CCN(C)CC2)N1` ?
A: 100 to 1000 nM

Q: And for `Cc1cccnc1[C@@H]1CCC[C@H](c2nc3cccc(C4CCN(C)CC4)c3[nH]2)N1C` ?
A: 0.01 to 100 nM

Q: And for `CCN1CCN(c2cccc3nc([C@H]4CCC[C@@H](c5ncccc5Cl)N4)[nH]c23)CC1` ?
A: 0.01 to 100 nM

Q: And for `COc1cccnc1[C@@H]1CCC[C@H](c2nc3cccc(N4CCN(C)CC4)c3[nH]2)N1` ?
A: 0.01 to 100 nM

Q: And for `CN1CCC(n2c([C@H]3CCC[C@@H](c4ncccc4Cl)N3C)nc3ccccc32)CC1` ?
A: 0.01 to 100 nM

Q: And for `Cc1c(Cl)ccnc1[C@@H]1CCC[C@H](c2nc3cccc(N4CCN(C)CC4)c3[nH]2)N1` ?
A: 0.01 to 100 nM

Q: And for `Cc1cccnc1[C@@H]1CCC[C@H](c2nc3ccccc3[nH]2)N1CCc1ccccn1` ?
A: 0.01 to 100 nM

Q: And for `Cc1cccnc1[C@@H]1CCC[C@H](c2nc3ccccc3n2CCCN2CCC(F)(F)CC2)N1C` ?
A: 0.01 to 100 nM

Q: And for `CC(C)N1CCN(c2cccc3nc([C@H]4CCC[C@@H](c5ncccc5Cl)N4)[nH]c23)CC1` ?
A: 0.01 to 100 nM

Q: And for `CO[C@@H]1C[C@H](c2nc3cccc(N4CCN(C)CC4)c3[nH]2)N(C)[C@H](c2ncccc2C)C1` ?
A: 100 to 1000 nM
